This collection of values is drawn from PubChem BioAssay AID1645883.

# subject of test: Rap guanine nucleotide exchange factor 3 (Homo sapiens)
# measurement protocol: Validation qHTS for agonist of cAMP-regulated guanine nucleotide exchange factor 3 (EPAC1); note: % is set by controls: 0 for no effect and ±100 for the full control effect; nearly all actives have a fitted effect of over 70% in size
# test context: EPAC1 Rap1b BODIPY-GDP exchange, fluorescence; hits give high values, percent of cAMP control response
Screen size: about 16,000 compounds; about 160 (1%) were called active. About 8% were inconclusive and are not listed. The full list was thinned out, with actives kept by preference.
measured property: max response (%)
# output: bare number, implied unit %

// max response value for "COc1cccc(Cn2c(=O)cnc3cncnc32)c1" : -1.3

// max response value for "COC(=O)N1CCC[C@@]2(CCN(C(=O)NC(C)C)C2)C1" : -60.9

// max response value for "O=C(NCCN1CCOCC1)c1cnn(-c2nccc(-c3cccs3)n2)c1C1CC1" : -10.9

// max response value for "COC(=O)c1ccccc1C(=O)NCc1nc(N2CCCC2)c2cccc(C)c2n1" : -26.9

// max response value for CC(=O)Oc1c2c(c3c(c1CC=C(C)C)O[C@@]14C(=CC5CC1C(C)(C)OC4(C/C=C(\C)C(=O)O)C5=O)C3=O)OC(C)(CCC=C(C)C)C=C2 (some centres undefined) : -112

// max response value for "CN(Cc1ccco1)c1cc(-c2ccccc2C(F)(F)F)ncn1" : 17

// max response value for "O=C1C[C@H]2C=CCc3cccc(c32)CN1Cc1ccccc1" : -26.6

// max response value for "O=C(Nc1ccccc1)N[C@H]1C[C@H](C(=O)O)Nc2cc(Cl)cc(Cl)c21" : 1.49

// max response value for "CC(=O)OC[C@H]1O[C@@H](O[C@H]2[C@H](O)[C@@H](OC(=O)c3ccccc3C(=O)O)[C@H](O)O[C@@H]2COC(C)=O)[C@H](O)[C@@H](OC(=O)c2ccccc2C(=O)O)[C@@H]1O" : -29.6
